Measured target: UniProt A0AAW0UC28
Sequence (A0AAW0UC28 11-110): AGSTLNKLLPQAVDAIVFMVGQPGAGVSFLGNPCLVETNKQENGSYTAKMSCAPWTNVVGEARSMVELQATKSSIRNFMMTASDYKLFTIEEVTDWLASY
Measure name: Kd (mM)
Only the number, expressed in mM, is required.

input: Field request: Kd | item: CC(=O)[C@H]1CC[C@H]2[C@@H]3CCC4=CC(=O)CC[C@]4(C)[C@H]3CC[C@]12C
output: 30.8

----------
Measured target: rSCY4
Construct: biotinylated for BLI
Protocol: biolayer interferometry (Octet)
Condition details: biotinylated protein on Super Streptavidin sensor; progesterone 0.125-4 mM; phosphate-saline buffer pH 7.4, 0.02% Tween 20; room temperature
Measure name: Kd (µM)
Only the number, expressed in µM, is required.

input: Field request: Kd | item: CC(=O)[C@H]1CC[C@H]2[C@@H]3CCC4=CC(=O)CC[C@]4(C)[C@H]3CC[C@]12C
output: 2280

These data points were gathered from paper PMC10053787.
